molecular target: RANK (Mus musculus); construct: extracellular segment of RANK (amino acid 26–210), His-RANK fusion expressed in E. coli; experiment: SPR on immobilized RANK; supported by CETSA in RAW264.[…] cells
Sequence (O35305 26-210): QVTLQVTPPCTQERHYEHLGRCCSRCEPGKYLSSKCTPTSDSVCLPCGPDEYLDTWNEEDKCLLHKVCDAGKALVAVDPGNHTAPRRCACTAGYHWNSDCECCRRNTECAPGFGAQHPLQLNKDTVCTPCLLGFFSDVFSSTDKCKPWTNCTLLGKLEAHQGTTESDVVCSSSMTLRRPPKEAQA
OBSERVED_PROPERTY: pKd
Note on units: pKd is unitless, being -log10 of a concentration expressed in mol/L.

Tell me the measured pKd of "O=C(Nc1ccc(N2CCCCC2)cc1)c1ccccc1O" , please.
3.02
